Origin of values: patent US20050159599A1

Exercise: for every item that follows, state its recorded rate of decrease (%).
Tested on: Tetranychus urticae
Assay: Acaricidal effect for Tetranychus urticae (Test Example 5)
Assay type: in vivo
Details: 100 ppm (table); spray on kidney bean with ten female imagoes; survivors counted on second and seventh day, 25° C.
Lab book: enter the figure in %, no units written.

For the compound CC(C)N1CN(C(=O)c2c(F)cccc2F)C(=O)N(c2ccc(Oc3ccc(C(F)(F)F)cc3Cl)cc2F)C1 [III-25] , give its reported rate of decrease (%).
97

For the compound O=C(CBr)N1CN(C(=O)c2c(F)cccc2F)C(=O)N(c2ccc(Oc3ccc(C(F)(F)F)cc3Cl)cc2F)C1 [III-44] , give its reported rate of decrease (%).
96

For the compound CON(C)C(=O)C(=O)N1CN(C(=O)c2c(F)cccc2F)C(=O)N(c2ccc(Oc3ccc(C(F)(F)F)cc3Cl)cc2F)C1 [III-48] , give its reported rate of decrease (%).
95

For the compound CSCC(=O)N1CN(C(=O)c2c(F)cccc2F)C(=O)N(c2ccc(Oc3ccc(C(F)(F)F)cc3Cl)cc2F)C1 [III-45] , give its reported rate of decrease (%).
100
